The measured values listed here are drawn from patent US9957251B2.

target.or.system: CDK8/CycC (Homo sapiens)
Construct: purchased Carna Biosciences
experimental.protocol: CDK8 inhibitory activity (TR-FRET, Kinase Tracer-236 displacement)
Assay type: binding
particulars: 1 μM of the test compound; read-out: Percent inhibition of CDK8 activity (%)
observable: inhibition at 1 µM (%)
Could you give me the number in %? Just the number is fine.

Q. Kindly state the measured inhibition at 1 µM obtained for `Cn1cc(-c2ccncc2/C=C/C(=O)Nc2ccc(CN3CCOCC3)cc2F)cn1` with CDK8/CycC (Homo sapiens).
A. 99

Q. Thanks! And `O=C(/C=C/c1cnccc1-c1cnn(C2CC2)c1)Nc1ccc2c(c1)CN(CC(F)(F)F)CC2` ?
A. 98

Q. Thanks! And `Cn1cc(-c2ccncc2/C=C/C(=O)Nc2ccc(CC(F)(F)F)cc2)cn1` ?
A. 99

Q. Thanks! And `Cn1cc(-c2ccncc2/C=C/C(=O)Nc2ccc(N3CC(F)(F)C3)cc2)cn1` ?
A. 105

Continuing:
Q. Kindly state the measured inhibition at 1 µM obtained for `Cn1cc(-c2ccncc2/C=C/C(=O)Nc2ccc(N3CCOCC3)c(Cl)c2)cn1` with CDK8/CycC (Homo sapiens).
A. 102

Q. Thanks! And `COc1ncc(-c2ccncc2/C=C/C(=O)Nc2ccc(CN3CCOCC3)cc2F)s1` ?
A. 99

Q. Thanks! And `Cn1cc(-c2ccncc2/C=C/C(=O)Nc2ccc(CN3CCOC(C)(C)C3)cc2)cn1` ?
A. 97

Q. Thanks! And `Cn1cc(-c2ccncc2/C=C/C(=O)Nc2ccc(CN3CCOCC3)c(Cl)c2)cn1` ?
A. 99

* * *

In this section, each of the compounds is paired with its reported inhibition at 1 µM.
target.or.system: CDK8/CycC (Homo sapiens, UniProt P49336)
Construct: purchased Carna Biosciences
Sequence (P49336 whole entry): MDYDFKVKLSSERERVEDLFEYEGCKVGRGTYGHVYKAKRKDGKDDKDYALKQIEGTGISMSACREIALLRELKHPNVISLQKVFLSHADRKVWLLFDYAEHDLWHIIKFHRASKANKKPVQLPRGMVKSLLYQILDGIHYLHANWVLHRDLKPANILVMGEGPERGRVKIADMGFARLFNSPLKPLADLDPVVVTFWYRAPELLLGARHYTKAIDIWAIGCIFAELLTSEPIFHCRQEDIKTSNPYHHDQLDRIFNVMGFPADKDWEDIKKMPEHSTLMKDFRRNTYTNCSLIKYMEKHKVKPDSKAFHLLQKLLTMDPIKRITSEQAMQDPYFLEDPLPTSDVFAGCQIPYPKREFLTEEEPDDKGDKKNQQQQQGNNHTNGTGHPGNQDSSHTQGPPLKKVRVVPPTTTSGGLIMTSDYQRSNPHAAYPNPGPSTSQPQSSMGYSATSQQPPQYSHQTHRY
Sequence (P24863 whole entry partner): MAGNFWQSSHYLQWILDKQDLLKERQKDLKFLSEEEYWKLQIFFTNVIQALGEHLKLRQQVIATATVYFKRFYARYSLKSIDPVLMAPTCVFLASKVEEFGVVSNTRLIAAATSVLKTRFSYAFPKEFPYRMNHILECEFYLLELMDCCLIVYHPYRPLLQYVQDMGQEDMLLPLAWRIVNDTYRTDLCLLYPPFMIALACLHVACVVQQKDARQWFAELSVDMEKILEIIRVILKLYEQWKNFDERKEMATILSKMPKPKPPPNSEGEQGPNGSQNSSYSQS
experimental.protocol: CDK8 inhibitory activity (TR-FRET, Kinase Tracer-236 displacement)
Type: binding
particulars: 1 μM of the test compound; read-out: Percent inhibition of CDK8 activity (%)
Could you give me the number in %? Just the number is fine.

// known answers, use as guide
Q. Endpoint output: inhibition at 1 µM of `Cn1cc(-c2ccncc2/C=C/C(=O)Nc2ccc3c(c2)OCO3)cn1` . Value?
A. 96

Q. Thanks! And `Cn1cnc2ccc(-c3ccncc3/C=C/C(=O)Nc3ccc(CN4CCOCC4)cc3)cc21` ?
A. 102

Q. Thanks! And `O=C(/C=C/c1cnccc1-c1cnn(Cc2ccccn2)c1)Nc1ccc(CN2CCOCC2)cc1` ?
A. 101

Q. Thanks! And `CC1CN(Cc2ccc(NC(=O)/C=C/c3cnccc3-c3cnn(C4CC4)c3)cc2)C1` ?
A. 102

Q. Thanks! And `CN1CCc2ccc(NC(=O)/C=C/c3cnccc3-c3cnn(C)c3)cc2C1` ?
A. 100

Continuing:
Q. Endpoint output: inhibition at 1 µM of `Cn1cc2cc(-c3ccncc3/C=C/C(=O)Nc3ccc(CN4CCOCC4)cc3)ccc2n1` . Value?
A. 97

Q. Thanks! And `Cn1cc(-c2ccncc2/C=C/C(=O)Nc2ccc(CN3CCOCC3)c(O)c2)cn1` ?
A. 97

Q. Thanks! And `Cn1cc(-c2ccncc2/C=C/C(=O)Nc2ccc3c(ccn3C)c2)cn1` ?
A. 98

Q. Thanks! And `O=C(/C=C/c1cnccc1-c1cnn(C2CC2)c1)Nc1ccc(CN2CC(F)(F)C2)cc1` ?
A. 105

Q. Thanks! And `O=C(/C=C/c1cnccc1-c1cnn2ccccc12)Nc1ccc(CN2CCOCC2)cc1` ?
A. 98

Q. Thanks! And `O=C(/C=C/c1cnccc1-c1cnn(C2CC2)c1)Nc1ccc2c(c1)CN(CC(F)(F)C(F)(F)F)CC2` ?
A. 97

Q. Thanks! And `Cn1cc(-c2ccncc2/C=C/C(=O)Nc2ccc3ccncc3c2)cn1` ?
A. 94

Q. Thanks! And `Cn1cc(-c2ccncc2/C=C/C(=O)Nc2ccc(Cn3ccnc3)cc2)cn1` ?
A. 102

Q. Thanks! And `Cn1cc(-c2ccncc2/C=C/C(=O)Nc2ccc(CN3CCC(F)(F)C3)cc2)cn1` ?
A. 99

Q. Thanks! And `Cn1cc(-c2ccncc2/C=C/C(=O)Nc2ccc(CCC(F)(F)F)cc2)cn1` ?
A. 98

Q. Thanks! And `Cn1cc(-c2c(F)cncc2/C=C/C(=O)Nc2ccc3c(c2)CN(CC(F)(F)F)C3)cn1` ?
A. 106

Q. Thanks! And `COCCn1cnc2ccc(-c3ccncc3/C=C/C(=O)Nc3ccc(CN4CCOCC4)cc3)cc21` ?
A. 103
